- ASSAY SYSTEM: T1, medium-affinity receptor IL-2Rβ/γ on human cells (Mo7e cell line; human CD8+T and NK cells) (human, UniProt P14784 27-551; P31785 23-369)
- T1 sequence (looked up) 1: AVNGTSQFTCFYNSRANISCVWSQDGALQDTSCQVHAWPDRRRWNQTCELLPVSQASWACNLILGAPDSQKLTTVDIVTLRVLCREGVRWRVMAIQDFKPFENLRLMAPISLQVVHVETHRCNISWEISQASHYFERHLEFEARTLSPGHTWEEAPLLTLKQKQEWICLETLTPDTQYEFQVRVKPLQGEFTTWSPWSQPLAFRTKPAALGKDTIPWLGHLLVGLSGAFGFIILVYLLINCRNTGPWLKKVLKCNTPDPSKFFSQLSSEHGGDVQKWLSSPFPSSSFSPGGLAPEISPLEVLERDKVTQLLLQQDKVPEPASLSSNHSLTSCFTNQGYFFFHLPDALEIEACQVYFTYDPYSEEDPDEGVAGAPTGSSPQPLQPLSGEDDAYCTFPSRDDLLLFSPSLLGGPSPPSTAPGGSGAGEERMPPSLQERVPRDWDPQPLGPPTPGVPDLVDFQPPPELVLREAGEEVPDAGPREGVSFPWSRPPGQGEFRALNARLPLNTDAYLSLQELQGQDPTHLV
- T1 sequence (looked up) 2: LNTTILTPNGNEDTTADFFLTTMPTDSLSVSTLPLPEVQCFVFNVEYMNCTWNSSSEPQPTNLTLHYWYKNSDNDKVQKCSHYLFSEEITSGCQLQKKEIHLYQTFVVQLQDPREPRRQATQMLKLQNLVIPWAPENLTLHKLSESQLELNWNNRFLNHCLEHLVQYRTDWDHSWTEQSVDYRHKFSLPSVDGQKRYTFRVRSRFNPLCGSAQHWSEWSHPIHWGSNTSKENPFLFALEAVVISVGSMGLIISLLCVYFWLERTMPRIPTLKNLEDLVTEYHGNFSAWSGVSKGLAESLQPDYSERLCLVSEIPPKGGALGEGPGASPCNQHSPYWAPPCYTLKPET
- ASSAY INFO: cell-based or functional assay
MEASURED QUANTITY: relative biological activity (Mo7e cell proliferation) (%)
Give the quantity in %, number only.

- BINDER: "IL-2-22 (N26Q/N29S/F42A/N71Q/L72G) (ligand) MAPTSSSTKKTQLQLEHLLLDLQMILQGISNYKNPKLTRMLTAKFYMPKKATELKHLQCLEEELKPLEEVLQGAQSKNFHLRPRDLISNINVIVLELKGSETTFMCEYADETATIVEFLNRWITFAQSIISTLT"
  MEASUREMENT UNIT: "%"
  RECORDED VALUE: 86
- BINDER: "PEGylated IL-2-23 (ligand, mono-PEGylated with 20 kDa mPEG-butyraldehyde (sodium cyanoborohydride); site not stated, also called PEG-IL-2-23) MAPTSSSTKKTCLQLEHLLLDLQMILNGIQSMHIDATLYMPKKATELKHLQCLEEELKPLEEVLNLAQSKNFHLRPRDLISNINVIVLELKGSETTFMCEYADETATIVEFLNRWITFAQSIISTCT"
  MEASUREMENT UNIT: "%"
  RECORDED VALUE: 10

// moving on: another record for relative biological activity (Mo7e cell proliferation)
Please report the recorded relative biological activity (Mo7e cell proliferation) for PEGylated IL-2-22 (ligand, mono-PEGylated with 20 kDa mPEG-butyraldehyde (sodium cyanoborohydride); site not stated, also called PEG-IL-2-22) MAPTSSSTKKTQLQLEHLLLDLQMILQGISNYKNPKLTRMLTAKFYMPKKATELKHLQCLEEELKPLEEVLQGAQSKNFHLRPRDLISNINVIVLELKGSETTFMCEYADETATIVEFLNRWITFAQSIISTLT .
7
